# System Under Test: T1, human CD3ε/δ-His (human, UniProt P07766 23-126; P04234 22-105)
# T1 construct: Bought recombinant heterodimer with His tag; also called human CD3ε/δ protein
# T1 sequence (P07766 23-126, stated change not applied, form in doubt, chain 1 of 2): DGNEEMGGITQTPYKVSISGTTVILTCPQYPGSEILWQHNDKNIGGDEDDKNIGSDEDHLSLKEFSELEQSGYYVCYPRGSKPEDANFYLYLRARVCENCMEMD
# T1 sequence (P04234 22-105, stated change not applied, form in doubt, chain 2 of 2): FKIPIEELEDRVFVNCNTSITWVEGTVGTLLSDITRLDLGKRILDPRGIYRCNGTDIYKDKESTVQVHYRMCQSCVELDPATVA
# Assay Summary: SPR, antibody captured on Protein A chip
# Experimental: Running buffer was HBS-EP+(10 mM HEPES, 150 mM NaCl, 3 mM EDTA, 0.05% surfactant P20) (GE Healthcare; BR-1006-69). The flow-through cell was set to 25° C. The sample block was set to 16° C. Both were pretreated with the running buffer. In each cycle, an antibody to be detected was first captured with a Protein A chip, and then a single concentration of CD3ε antigen protein was injected. […]
Quantity Measured: koff (s⁻¹)
Please reply with the bare figure in s⁻¹ and do not write the unit itself.

Query: Give the measured koff for 1-22.6-1-H2a-L2a humanized antibody (antibody, human IgG1, kappa, V domains shown, also called 1-22.6-H2a-L2a) VH: EVQLVQSGSELKKPGASVKVSCKTSGYTFTSYGMSWVRQAPGQGLEWMGWINTYSGVPTYAQDFKGRFVFSLDTSVSTAYLQISSLKAEDTAVYYCARLKNNPFVWGQGTTVTVSS VL: DIVMTQSPDSLAVSLGERATINCRSSQLILHSSGNTYLEWYQQKPGQSPKLLIYKVSNRFSGVPDRFSGSGSGTDFTLTISSLQAEDVAVYYCFQGSHFPWTFGGGTKVEIKR
Reply: 0.0134
